# Tested on: Cercospora arachidicola (peanut)
# measurement-description: Foliar fungal disease control, Cercospora arachidicola on peanut
# Type: in vivo
# run-conditions: 100 ppm foliar spray plus root drench approx. 40 ppm a.i./dry soil, 1-2 days before inoculation
quantity-kind: disease control grading, CERCOSPORA ARACHIDICOLA (PEANUT)

For reference, reported disease control grading, CERCOSPORA ARACHIDICOLA (PEANUT) for CON=C(C(=O)OC)c1ccccc1NC(=O)c1ccco1 (single isomer, unassigned) stands at 2 (6-25% of disease on untreated plants)

* * *

Task for the reader: assign each of the following molecules its reported disease control grading, PUCCINIA RECONDITA (WHEAT).
# System: Puccinia recondita (wheat)
# measurement-description: Foliar fungal disease control, Puccinia recondita on wheat
# Format: in vivo
# run-conditions: 100 ppm foliar spray plus root drench approx. 40 ppm a.i./dry soil, 1-2 days before inoculation
Give only the figure.

Form field disease control grading, PUCCINIA RECONDITA (WHEAT), entry CON=C(C(=O)OC)c1cccc2c1Oc1ccccc1O2 (single isomer, unassigned) [Compound 32] : 4

disease control grading, PUCCINIA RECONDITA (WHEAT) in this record for CON=C(C(=O)OC)c1ccccc1/C=C/c1ccco1 (single isomer, unassigned) [Compound 4] : 4

* * *

Please go through the items and note down their disease control grading, PUCCINIA RECONDITA (WHEAT).
# Tested on: Puccinia recondita (wheat)
# measurement-description: Foliar fungal disease control, Puccinia recondita on wheat
# Assay type: in vivo
# run-conditions: 100 ppm foliar spray plus root drench approx. 40 ppm a.i./dry soil, 1-2 days before inoculation

# disease control grading, PUCCINIA RECONDITA (WHEAT) of CO/N=C(/C(=O)OC)c1ccccc1Oc1ccccc1 = 4

The molecule listed as CON=C(C(=O)OC)c1ccccc1/C=C/c1ccccc1 (single isomer, unassigned) [Compound 2] shows disease control grading, PUCCINIA RECONDITA (WHEAT) equal to 2 (6-25% of disease on untreated plants)

* * *

# System: Apple (AP)
# measurement-description: Plant growth regulating whole plant screen, apple
# Format: in vivo
# run-conditions: 4000 ppm (4 kg/ha) spray, visual score after 2-6 weeks
quantity-kind: R = Retardation

Field R = Retardation (system: Apple (AP)) for entry CON=C(C(=O)OC)c1ccccc1NC(=O)c1ccccc1 (single isomer, unassigned) = 2 (31-60%)

Sample CON=C(C(=O)OC)c1ccccc1NC(=O)c1ccco1 (single isomer, unassigned) [Compound 13] , system: Apple (AP). Its R = Retardation is 2 (31-60%)

Apple (AP) data for CON=C(C(=O)OC)c1ccccc1/C=C/c1ccccc1 (single isomer, unassigned) ; its R = Retardation: 2 (31-60%)

Response field R = Retardation (Apple (AP)) for item CON=C(C(=O)OC)c1ccccc1NC(=O)c1cccs1 (single isomer, unassigned) : 1 (10-30%)

Hey, Apple (AP) data for CON=C(C(=O)OC)c1ccccc1NC(=O)c1ccco1 (single isomer, unassigned) [Compound 14] : R = Retardation came out at 1 (10-30%)
